Each item that follows carries a reported kon.
# experimental target: T1, monkey IL-25 expressed with a C-terminal myc-myc-hexahistidine tag (M. fascicularis (cynomolgus monkey))
# T1 construct: also called monkey IL-25-MMH; MfIL-25-MMH
# T1 chain: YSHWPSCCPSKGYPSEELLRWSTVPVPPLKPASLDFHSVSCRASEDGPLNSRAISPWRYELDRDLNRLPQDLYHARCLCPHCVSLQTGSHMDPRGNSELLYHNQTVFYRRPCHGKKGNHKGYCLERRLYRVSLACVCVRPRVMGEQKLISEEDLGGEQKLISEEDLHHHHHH
# experiment notes: SPR Biacore, captured mAb, 25°C;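 also: Real-time surface plasmon resonance on a Biacore 4000, with IL-25-MMH binding to purified anti-IL-25 antibodies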

[
  {
    "binder": "H4H10863P (antibody, human IgG4, V domains shown) VH: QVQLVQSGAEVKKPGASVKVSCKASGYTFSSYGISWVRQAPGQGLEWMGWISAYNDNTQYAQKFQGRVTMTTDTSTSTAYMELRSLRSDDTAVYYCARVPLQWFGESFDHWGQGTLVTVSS VL: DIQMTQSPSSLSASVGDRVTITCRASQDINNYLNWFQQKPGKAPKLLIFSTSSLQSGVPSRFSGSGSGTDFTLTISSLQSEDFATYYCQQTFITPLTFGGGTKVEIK",
    "kon (M⁻¹ s⁻¹)": 343000
  },
  {
    "binder": "H4H10905P (antibody, human IgG4, V domains shown) VH: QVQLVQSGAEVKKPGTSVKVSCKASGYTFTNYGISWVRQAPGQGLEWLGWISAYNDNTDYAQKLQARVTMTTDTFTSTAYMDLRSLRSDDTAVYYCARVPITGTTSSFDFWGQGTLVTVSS VL: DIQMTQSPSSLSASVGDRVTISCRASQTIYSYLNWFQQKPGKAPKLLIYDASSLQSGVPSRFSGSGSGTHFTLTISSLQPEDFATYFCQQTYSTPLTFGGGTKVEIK",
    "kon (M⁻¹ s⁻¹)": 417000
  },
  {
    "binder": "H4H10897P (antibody, human IgG4, V domains shown) VH: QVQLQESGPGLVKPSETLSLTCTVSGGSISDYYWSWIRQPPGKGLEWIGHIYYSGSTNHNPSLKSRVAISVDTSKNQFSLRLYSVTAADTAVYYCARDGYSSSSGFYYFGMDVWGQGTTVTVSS VL: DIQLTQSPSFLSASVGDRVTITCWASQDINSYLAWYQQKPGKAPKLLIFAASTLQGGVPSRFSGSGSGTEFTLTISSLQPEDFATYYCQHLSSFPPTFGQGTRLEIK",
    "kon (M⁻¹ s⁻¹)": "1.13e+06"
  }
]
